- Test system: Radical scavenging activity
- protocol details: Antioxidant activity assessed as inhibition of DPPH free radical scavenging activity
- Format: functional
assay readout: IC50

Worked cases, answers included:
Task: For Cc1ccc(/C=C/C(=O)c2cc(C(=O)/C=C/c3ccc(C)o3)c(O)cc2O)o1 , what is its reported IC50?
Output: Not Active

Task: For COc1ccc(/C=C/C(=O)c2cc(C(=O)/C=C/c3ccc(OC)cc3)c(O)cc2O)cc1 , what is its reported IC50?
Output: Not Active

Task: For COc1cccc(/C=C/C(=O)c2cc(C(=O)/C=C/c3cccc(OC)c3OC)c(O)cc2O)c1OC , what is its reported IC50?
Output: Not Active

Task: For O=C(/C=C/c1ccco1)c1cc(C(=O)/C=C/c2ccco2)c(O)cc1O , what is its reported IC50?
Output: Not Active

Task: For COc1cc(OC)c(OC)cc1/C=C/C(=O)c1cc(C(C)=O)c(O)cc1O , what is its reported IC50?
Output: Not Active

Next:
Task: For COC(=O)[C@@H](N)CCCNC(=N)N[N+](=O)[O-] , what is its reported IC50?
Output: Not Active

Task: For O=C(/C=C/c1ccccn1)c1cc(C(=O)/C=C/c2ccccn2)c(O)cc1O , what is its reported IC50?
Output: Not Active

Task: For COc1ccc(/C=C/C(=O)c2cc(C(=O)/C=C/c3ccc(OC)c(OC)c3)c(O)cc2O)cc1OC , what is its reported IC50?
Output: Not Active

Task: For COc1cccc(/C=C/C(=O)c2cc(C(=O)/C=C/c3cccc(OC)c3)c(O)cc2O)c1 , what is its reported IC50?
Output: Not Active
